- Assay Setup: in ethyl acetate, 283.15 K
Value Type: solubility (mole fraction)

Smiles String	Result
CCN(CC)C(=S)SSC(=S)N(CC)CC	0.0143

---

- Assay Setup: in ethyl acetate, 313.15 K

Smiles String	solubility (mole fraction)
CCN(CC)C(=S)SSC(=S)N(CC)CC	0.107

---

- Assay Setup: in dichloromethane, 303.15 K
Value Type: solubility (mole fraction)

Smiles String	Result
CCN(CC)C(=S)SSC(=S)N(CC)CC	0.202

---

- Assay Setup: in n-butanol, 293.15 K

Smiles String	solubility (mole fraction)
CCN(CC)C(=S)SSC(=S)N(CC)CC	0.00375

---

- Assay Setup: in isobutanol, 298.15 K

Smiles String	solubility (mole fraction)
CCN(CC)C(=S)SSC(=S)N(CC)CC	0.0035
